% Inhibition of Maximal Response, 100 µM peptide, 10^-7 M PGF2α, porcine eyecup: recorded values
TESTED TARGET: FP receptor in porcine tissue (retinal microvessels, uterine myometrium) (pig)
EXPERIMENT: cell-based or functional assay
Non-standard residues stand in square brackets, D forms with d. No end group written: not given here.
Output spec: scalar in %, unitless text.

[dI][dL]A[dH][dR][dD][dY][dK] [PCP-13.8] = 53.2

Exercise: Look up % Inhibition of Maximal Response, 100 µM peptide, 10^-7 M PGF2α, porcine eyecup for this binder: [dI][dL]G[dH][dR][dD][dY][dK]-NH2 (N-terminus assumed; SMILES CC[C@@H](C)[C@@H](N)C(=O)N[C@H](CC(C)C)C(=O)NCC(=O)N[C@H](Cc1c[nH]cn1)C(=O)N[C@H](CCCNC(=N)N)C(=O)N[C@H](CC(=O)O)C(=O)N[C@H](Cc1ccc(O)cc1)C(=O)N[C@H](CCCCN)C(N)=O) [PCP-13.21]
Solution: 53.8
